Provenance of the data: PubChem BioAssay (NCI)

system: 786-0 renal; assay: NCI-60 one-dose screen, 48 h; details: 10 µM unless noted
Compounds without any hit were thinned out: in the full panel of roughly 83,000, 20% have a hit. The source made the active and inactive calls. How the source made its calls: active means growth percent below 10; inactive means the rest.
# valid calls are active, inactive; nothing else

Below are worked cases with known answers.
O=[N+]([O-])c1ccc(-c2nc(N(CCO)CCO)c3ccccc3n2)o1 : active
CCNc1ncnc2[nH]ncc12 : inactive
O=Cc1ccc(Cl)c(Cl)c1 : inactive

What call does the record list for C/C(Cc1ccccc1)=N\O ?
inactive

What call does the record list for CN1CCCN(C(c2ccccc2)c2ccc(Cl)cc2)CC1 (centres undefined) ?
inactive

What call does the record list for CCOC(=O)/C(C#N)=C\c1c[nH]c2ccccc12 ?
inactive

What call does the record list for Cc1ccc(Cc2ccc(C)cc2)cc1 ?
inactive

What call does the record list for O=C(NCc1ccccc1)/C(=C/c1ccccc1)NC(=O)c1ccccc1 ?
inactive

What call does the record list for O=S(=O)(c1ccc(NC(=S)NCc2cccnc2)cc1)N1CCCCC1 ?
inactive

What call does the record list for c1cc(CNCCNCc2ccncc2)ccn1 ?
inactive

What call does the record list for CCOC(=O)CO ?
inactive

What call does the record list for COc1ccc(/C=N/NC(=O)COCC(=O)N/N=C/c2ccc(OC)cc2)cc1 ?
inactive

What call does the record list for O=C(O)CSCC(=O)Nc1cc(C(F)(F)F)ccc1Cl ?
inactive

What call does the record list for Cc1ccccc1CC(N)C(=O)O (centres undefined) ?
inactive

* * *

test system: M14 melanoma; assay: NCI-60 one-dose screen, 48 h (100 = growth as untreated, 0 = no growth, -100 = all killed); settings: 10 µM unless noted
About 83,000 compounds went through this panel and 20% of them were active in at least one assay; those are over-represented in the sample as a whole.
// growth lookup, one value per entry
Response body: numeric value in %, unit text excluded.

Recorded results for 2 compounds are shown here.
CCCCOC(=O)c1ccc(NC(=O)CCl)cc1 : 51.2
CCOC(=O)CSCCC#N : 94.9

Please examine the following record next.
Can you look up the measured growth of O=S(Cc1ccccc1)/C(=C/NC(=S)Nc1ccccc1)c1ccccc1 (centres undefined) for me?
98.5

* * *

system: NCI-H460 lung; assay: NCI-60 one-dose screen, 48 h (100 = growth as untreated, 0 = no growth, -100 = all killed); conditions: 10 µM unless noted
About 83,000 compounds went through this panel and 20% of them were active in at least one assay; those are over-represented in the sample as a whole. The source made the active and inactive calls. Rule for the calls: active = growth percent below 10; inactive = the rest.
Measured endpoint: growth

Recorded results for 5 compounds are shown here.
Nc1ncc([N+](=O)[O-])cn1 : 111% (inactive)
Cc1cc(Cc2ccccc2)c(O)c(Cc2ccccc2)c1 : 99.4% (inactive)
Cc1cccc(-[n+]2noc(N)n2)c1 : 80.9% (inactive)
O=C(O)Cc1cccc2ccccc12 : 109% (inactive)
Nc1ccc2c(c1)Cc1cc(N)c(N)cc1-2 : 95.9% (inactive)

Can you look up the measured growth of NNC(=O)N/N=C1\C(=O)N(c2nccs2)C(=O)C(=O)C1c1nc2ccccc2s1 (configuration not stated) for me?
101% (inactive)

Can you look up the measured growth of S=CN1CCCCC1 for me?
109% (inactive)

* * *

tested on: SK-MEL-5 melanoma; test: NCI-60 one-dose screen, 48 h; conditions: 10 µM unless noted
This is part of a sample that, as a whole, favours compounds with a hit. Of some 83,000 tested, about 20% had one in any assay. Activity calls are given as the source filed them. How the source made its calls: active means growth percent below 10; inactive means the rest.
# valid calls are TRUE for active, FALSE for inactive; nothing else

COc1ccc2c(c1)Nc1ccccc1S2 : FALSE

What call does the record list for CCN(CC)CCN1CNC(=S)NC1 ?
FALSE

What call does the record list for CCC(/C=C\C(C)=O)CC ?
FALSE

What call does the record list for CCOS(=O)(=O)c1ccc([N+](=O)[O-])cc1 ?
FALSE

What call does the record list for CC(=O)/C(C)=N\OC(=O)Nc1ccccc1 ?
FALSE

What call does the record list for Nc1cc(N)ncn1 ?
FALSE

What call does the record list for CCOC(OCC)C(=O)c1ccccc1 ?
FALSE

What call does the record list for CCOC(=O)Nc1nccs1 ?
FALSE
